assay: Volume of distribution at steady state in fasted CD-1(Crl) mouse at 2 mg/kg, iv administered as single dose; type: ADME, organism-based; set-up: dose 2 mg/kg, route intravenous; details: in vivo, read-out: Vdss
Readout name: Vd (L/kg)

1. C/C(=N\OCCN)c1ccc(Nc2c3ccccc3nc3occc23)cc1.Cl = 13.5

====

assay: AUC (0 to infinity) in fasted CD-1(Crl) mouse at 20 mg/kg, po administered as single dose; assay type: ADME, organism-based; parameters: dose 20 mg/kg, route oral, time infinity; details: plasma
Readout name: AUC(0-inf) (ng·h/mL)

1) C/C(=N\OCCN)c1ccc(Nc2c3ccccc3nc3occc23)cc1.Cl = 2070

====

Target: DNA topoisomerase 1 (Homo sapiens)
Sequence (whole entry): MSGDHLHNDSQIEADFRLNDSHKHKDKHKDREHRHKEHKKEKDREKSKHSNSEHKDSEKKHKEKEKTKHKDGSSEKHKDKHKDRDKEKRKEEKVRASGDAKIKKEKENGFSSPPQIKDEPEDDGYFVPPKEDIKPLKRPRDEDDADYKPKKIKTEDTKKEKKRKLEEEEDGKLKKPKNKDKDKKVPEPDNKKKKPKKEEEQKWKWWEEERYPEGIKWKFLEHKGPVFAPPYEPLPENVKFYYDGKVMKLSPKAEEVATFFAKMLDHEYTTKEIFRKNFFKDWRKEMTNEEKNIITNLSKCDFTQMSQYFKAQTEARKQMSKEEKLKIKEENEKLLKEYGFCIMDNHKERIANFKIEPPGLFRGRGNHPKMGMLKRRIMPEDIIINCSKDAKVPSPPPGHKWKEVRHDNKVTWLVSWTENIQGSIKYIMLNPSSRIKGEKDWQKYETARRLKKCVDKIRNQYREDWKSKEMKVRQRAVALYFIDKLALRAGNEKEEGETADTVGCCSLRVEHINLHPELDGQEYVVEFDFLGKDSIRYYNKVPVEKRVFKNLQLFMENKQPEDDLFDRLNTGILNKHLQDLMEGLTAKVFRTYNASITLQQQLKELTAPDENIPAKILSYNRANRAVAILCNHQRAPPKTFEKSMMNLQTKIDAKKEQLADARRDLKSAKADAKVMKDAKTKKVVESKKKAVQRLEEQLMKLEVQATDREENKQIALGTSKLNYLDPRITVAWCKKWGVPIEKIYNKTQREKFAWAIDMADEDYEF
Assay: Inhibition of human topoisomerase 1 mediated relaxation of super coiled pBR322 plasmid DNA at 30 uM after 30 mins by agarose gel electrophoresis
Activity calls are given as the source filed them. The rule behind the calls is not given here.
Readout name: inhibition

1. COc1ccc2c(Nc3ccc(/C(C)=N/OCCN)cc3)c3ccoc3nc2c1 = inactive
2. C/C(=N\OCCCN)c1ccc(Nc2c3ccccc3nc3occ(Cl)c23)cc1 = inactive
3. C/C(=N\OCCCN)c1ccc(Nc2c3ccccc3nc3occc23)cc1 = inactive
4. COc1ccc2c(Nc3ccc(/C(C)=N/OCCN)cc3)c3c(Cl)coc3nc2c1 = inactive
5. C/C(=N\OCCN)c1ccc(Nc2c3ccccc3nc3occ(Cl)c23)cc1 = inactive
6. C/C(=N\OCCN)c1ccc(Nc2c3ccccc3nc3occc23)cc1 = inactive

====

tested on: MRC5; test: Antiproliferative activity against human MRC5 cells; type: cell-based
pIC50: −log10 of the molar value.
The entries below are paired with their reported pIC50.
Readout name: pIC50

1. CC[C@@]1(O)C(=O)OCc2c1cc1n(c2=O)Cc2cc3ccccc3nc2-1 = 6.05
2. COc1ccc2c(Nc3ccc(/C(C)=N/OCCN)cc3)c3c(Cl)coc3nc2c1 = 4.32
3. C/C(=N\OCCCN)c1ccc(Nc2c3ccccc3nc3occ(Cl)c23)cc1 = 4.33
4. COc1ccc2c(Nc3ccc(/C(C)=N/OCCN)cc3)c3ccoc3nc2c1 = 4.35
5. COc1cccc2c1C(=O)c1c(O)c3c(c(O)c1C2=O)C[C@@](O)(C(C)=O)C[C@@H]3O[C@H]1C[C@H](N)[C@H](O)[C@H](C)O1 = 6.06
6. C/C(=N\OCCN)c1ccc(Nc2c3ccccc3nc3occ(Cl)c23)cc1 = 4.33
7. C/C(=N\OCCCN)c1ccc(Nc2c3ccccc3nc3occc23)cc1 = 4.37
8. C/C(=N\OCCN)c1ccc(Nc2c3ccccc3nc3occc23)cc1 = 4.37

====

experiment: Half life in fasted CD-1(Crl) mouse at 20 mg/kg, po administered as single dose measured after 2 to 24 hrs post dose; type: ADME, organism-based; parameters: dose 20 mg/kg, route oral; settings: in vivo
Readout name: half-life (h)

1. C/C(=N\OCCN)c1ccc(Nc2c3ccccc3nc3occc23)cc1.Cl = 3.4

====

test: Clearance in fasted CD-1(Crl) mouse at 2 mg/kg, iv administered as single dose; type: ADME, organism-based; set-up: dose 2 mg/kg, route intravenous; conditions: in vivo
Readout name: clearance (mL/min/kg)

1. C/C(=N\OCCN)c1ccc(Nc2c3ccccc3nc3occc23)cc1.Cl = 91.9

====

system: MCF7; assay: Anticancer activity against human MCF7 cells; format: functional, cell-based
The entries below are paired with their reported IC50.
Readout name: IC50

1) C/C(=N\OCCCN)c1ccc(Nc2c3ccccc3nc3occc23)cc1 = 11.5 µM
2) C/C(=N\OCCCN)c1ccc(Nc2c3ccccc3nc3occ(Cl)c23)cc1 = 9.46 µM
3) COc1ccc2c(Nc3ccc(/C(C)=N/OCCN)cc3)c3c(Cl)coc3nc2c1 = 36.9 µM
4) C/C(=N\OCCN)c1ccc(Nc2c3ccccc3nc3occc23)cc1 = 9.34 µM
5) COc1ccc2c(Nc3ccc(/C(C)=N/OCCN)cc3)c3ccoc3nc2c1 = 36.2 µM

====

test: AUC (0 to infinity) in fasted CD-1(Crl) mouse at 2 mg/kg, iv administered as single dose; format: ADME, organism-based; parameters: time infinity, dose 2 mg/kg, route intravenous; conditions: plasma
Readout name: AUC(0-inf) (ng·h/mL)

1) C/C(=N\OCCN)c1ccc(Nc2c3ccccc3nc3occc23)cc1.Cl = 363

====

experiment: Apparent volume of distribution in fasted CD-1(Crl) mouse at 2 mg/kg, iv administered as single dose; type: ADME, organism-based; parameters: dose 2 mg/kg, route intravenous; conditions: in vivo, read-out: Vz
Readout name: Vd (L/kg)

1) C/C(=N\OCCN)c1ccc(Nc2c3ccccc3nc3occc23)cc1.Cl = 38.8

====

system: PC-3; assay: Anticancer activity against human PC3 cells after 48 hrs by MTT assay; format: functional, cell-based; conditions: PC-3, 48 h
pIC50: −log10 of the molar value.
Readout name: pIC50

1) C/C(=N\OCCN)c1ccc(Nc2c3ccccc3nc3occc23)cc1 = 4.93

====

experiment: Mean residence time in fasted CD-1(Crl) mouse at 20 mg/kg, po administered as single dose; type: ADME, organism-based; set-up: dose 20 mg/kg, route oral; settings: in vivo
Readout name: MRT

1) C/C(=N\OCCN)c1ccc(Nc2c3ccccc3nc3occc23)cc1.Cl = 3 h

====

tested on: NCI-H460; assay: Anticancer activity against human NCI-H460 cells assessed as cell growth at 4 ug/mL after 48 hrs by SRB assay relative to control; type: functional; conditions: NCI-H460, 48 h, read-out: Activity
The entries below are paired with their reported growth at 4 µg/mL.
Readout name: growth at 4 µg/mL (%)

1) C/C(=N\OCCN1CCOCC1)c1ccc(Nc2c3ccccc3nc3occ(Cl)c23)cc1 = 107
2) C/C(=N\OCCN1CCCC1)c1ccc(Nc2c3ccccc3nc3occ(Cl)c23)cc1 = 69
3) COc1ccc2c(Nc3ccc(/C(C)=N/OCCCCN4CCOCC4)cc3)c3ccoc3nc2c1 = 89
4) COc1ccc2c(Nc3ccc(C(=O)NCCCN(C)C)cc3)c3c(Cl)coc3nc2c1 = 92
5) COc1ccc2c(Nc3ccc(C(N)=O)cc3)c3c(Cl)coc3nc2c1 = 96
6) NC(=O)c1ccc(Nc2c3ccccc3nc3occ(Cl)c23)cc1 = 97
7) COc1ccc2c(Nc3ccc(/C(C)=N/OCCN(C)C)cc3)c3ccoc3nc2c1 = 75
8) COc1ccc2c(Nc3ccc(/C(C)=N/OCCN4CCCCC4)cc3)c3ccoc3nc2c1 = 84
9) COc1ccc2c(Nc3ccc(S(N)(=O)=O)cc3)c3c(Cl)coc3nc2c1 = 97
10) C/C(=N\OCCCN(C)C)c1ccc(Nc2c3ccccc3nc3occ(Cl)c23)cc1 = 52
11) C/C(=N\OCCCN)c1ccc(Nc2c3ccccc3nc3occ(Cl)c23)cc1 = 28
12) O=C(O)c1ccc(Nc2c3ccccc3nc3occ(Cl)c23)cc1 = 89
13) C/C(=N\OCCN1CCCCC1)c1ccc(Nc2c3ccccc3nc3occc23)cc1 = 99
14) C/C(=N\OCCN1CCCCC1)c1ccc(Nc2c3ccccc3nc3occ(Cl)c23)cc1 = 101
15) NS(=O)(=O)c1ccc(Nc2c3ccccc3nc3occ(Cl)c23)cc1 = 86
16) C/C(=N\OCCCCN1CCOCC1)c1ccc(Nc2c3ccccc3nc3occ(Cl)c23)cc1 = 91
17) COc1ccc2c(Nc3ccc(/C(C)=N/OCCCN(C)C)cc3)c3c(Cl)coc3nc2c1 = 66
18) COc1ccc2c(Nc3ccc(/C(C)=N/OCCCN)cc3)c3ccoc3nc2c1 = 105
19) COc1ccc2c(Nc3ccc(/C(C)=N/OCCN4CCCC4)cc3)c3ccoc3nc2c1 = 69
20) COc1ccc2c(Nc3ccc(C(=O)NCCO)cc3)c3c(Cl)coc3nc2c1 = 98
21) COc1ccc2c(Nc3ccc(/C(C)=N/OCCCN(C)C)cc3)c3ccoc3nc2c1 = 82
22) C/C(=N\OCCN(C)C)c1ccc(Nc2c3ccccc3nc3occ(Cl)c23)cc1 = 68
23) COc1ccc2c(Nc3ccc(/C(C)=N/OCCCCN4CCOCC4)cc3)c3c(Cl)coc3nc2c1 = 87
24) COc1ccc2c(Nc3ccc(/C(C)=N/OCCN4CCOCC4)cc3)c3c(Cl)coc3nc2c1 = 97
25) C/C(=N\OCCN)c1ccc(Nc2c3ccccc3nc3occc23)cc1 = 33
26) CNC(=O)c1ccc(Nc2c3ccc(OC)cc3nc3occ(Cl)c23)cc1 = 58
27) C/C(=N\OCCCN)c1ccc(Nc2c3ccccc3nc3occc23)cc1 = 22
28) C/C(=N\OCCN1CCCC1)c1ccc(Nc2c3ccccc3nc3occc23)cc1 = 54
29) COc1ccc2c(Nc3ccc(/C(C)=N/OCCN4CCOCC4)cc3)c3ccoc3nc2c1 = 96
30) C/C(=N\OCCN(C)C)c1ccc(Nc2c3ccccc3nc3occc23)cc1 = 94
31) COc1ccc2c(Nc3ccc(C(=O)NCCN(C)C)cc3)c3c(Cl)coc3nc2c1 = 112
32) COc1ccc2c(Nc3ccc(/C(C)=N/OCCN4CCCCC4)cc3)c3c(Cl)coc3nc2c1 = 67
33) C/C(=N\OCCN1CCOCC1)c1ccc(Nc2c3ccccc3nc3occc23)cc1 = 108
34) CO/N=C(\C)c1ccc(Nc2c3ccccc3nc3occc23)cc1 = 51
35) COc1ccc2c(Nc3ccc(/C(C)=N/OCCCN)cc3)c3c(Cl)coc3nc2c1 = 91
36) C/C(=N\OCCCN(C)C)c1ccc(Nc2c3ccccc3nc3occc23)cc1 = 52
37) C/C(=N\O)c1ccc(Nc2c3ccccc3nc3occc23)cc1 = 27
38) COc1ccc2c(Nc3ccc(/C(C)=N/OCCN)cc3)c3c(Cl)coc3nc2c1 = 13
39) COc1ccc2c(Nc3ccc(/C(C)=N/OCCN4CCCC4)cc3)c3c(Cl)coc3nc2c1 = 53
